IC50 for assorted molecules
# SYSTEM: KRAS G13C (Homo sapiens (Human), UniProt P01116+P62937, G13C)
# Sequence (P01116 other isoform, or with tags, fused parts or gaps G13C): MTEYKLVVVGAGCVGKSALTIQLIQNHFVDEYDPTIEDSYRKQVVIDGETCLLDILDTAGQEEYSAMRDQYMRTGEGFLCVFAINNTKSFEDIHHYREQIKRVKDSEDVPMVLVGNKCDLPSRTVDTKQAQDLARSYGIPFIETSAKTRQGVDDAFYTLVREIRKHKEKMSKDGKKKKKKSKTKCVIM
# Sequence (P62937 whole entry): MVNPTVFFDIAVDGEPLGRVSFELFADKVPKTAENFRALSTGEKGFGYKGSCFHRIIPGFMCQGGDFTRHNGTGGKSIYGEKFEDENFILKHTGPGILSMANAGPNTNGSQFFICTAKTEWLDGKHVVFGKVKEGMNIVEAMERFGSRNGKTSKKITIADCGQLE
# PROTOCOL DESCRIPTION: Ras-Raf disruption/FRET/MOA assay (BRAF RBD, Cyclophilin A)
# Format: biochemical
# TEST CONDITIONS: read-out: KRAS G13C FRET IC50
ASSAY READOUT: IC50

INSERT INTO assay_data (molecule, assay_readout, measured_value) VALUES
  ('CCn1c(-c2cccnc2[C@H](C)OC)c2c3cc(ccc31)-c1csc(n1)C[C@H](NC(=O)[C@H](C(C)C)N(C)C(=O)N1CCC1C(=O)O)C(=O)N1CCC[C@H](N1)C(=O)OCC(C)(C)C2 (some centres unmarked) [Compound A271]', 'IC50', '1000 to 10000 nM'),
  ('CCn1c(-c2cccnc2[C@H](C)OC)c2c3cc(ccc31)-c1csc(n1)C[C@H](NC(=O)[C@H](C(C)C)N(C)C(=O)N1CC(O)(COC)C1)C(=O)N1CCC[C@H](N1)C(=O)OCC(C)(C)C2 [Compound A553]', 'IC50', '100 to 1000 nM'),
  ('CCn1c(-c2cccnc2[C@H](C)OC)c2c3cc(ccc31)-c1csc(n1)C[C@H](NC(=O)[C@H](C(C)C)N(C)C(=O)N1CC[C@H](O)C1)C(=O)N1CCC[C@H](N1)C(=O)OCC(C)(C)C2 [Compound A401]', 'IC50', '100 to 1000 nM'),
  ('CCn1c(-c2cnccc2COC)c2c3cc(ccc31)-c1cc(O)cc(c1)C[C@H](NC(=O)[C@H](C(C)C)N(C)C(=O)N1CCNCC1)C(=O)N1CCC[C@H](N1)C(=O)OCC(C)(C)C2 [Compound A255]', 'IC50', '10 to 100 nM'),
  ('CCn1c(-c2cccnc2[C@H](C)OC)c2c3cc(ccc31)-c1cc(O)cc(c1)C[C@H](NC(=O)[C@H](C(C)C)N(C)C(=O)[C@H]1CCCO1)C(=O)N1CCC[C@H](N1)C(=O)OCC(C)(C)C2 [Compound A240]', 'IC50', '10 to 100 nM');

###

# SYSTEM: NRAS G12C (Homo sapiens (Human), UniProt P01111+P62937, G12C)
# Sequence (P01111 whole entry G12C): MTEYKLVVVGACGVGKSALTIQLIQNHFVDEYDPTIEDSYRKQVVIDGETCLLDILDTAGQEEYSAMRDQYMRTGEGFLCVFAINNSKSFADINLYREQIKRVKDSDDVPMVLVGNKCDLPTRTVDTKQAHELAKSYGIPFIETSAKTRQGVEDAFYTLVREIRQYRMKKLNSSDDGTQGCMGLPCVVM
# Sequence (P62937 whole entry): as the sequence (P62937 whole entry) above
# PROTOCOL DESCRIPTION: Ras-Raf disruption/FRET/MOA assay (BRAF RBD, Cyclophilin A)
# Type: biochemical
# TEST CONDITIONS: read-out: NRAS G12C FRET data IC50
pIC50: −log10 of the molar value.
ASSAY READOUT: pIC50

INSERT INTO results (structure_as_smiles, assay_readout, measured_value) VALUES
  ('CCn1c(-c2cccnc2[C@H](C)OC)c2c3cc(ccc31)-c1cc(O)cc(c1)C[C@H](NC(=O)[C@H](C(C)C)N(C)C(=O)[C@@H]1[C@H]3CC[C@H](C3)[C@@H]1N)C(=O)N1CCC[C@H](N1)C(=O)OCC(C)(C)C2', 'pIC50', '6.00 to 7.00'),
  ('CCn1c(-c2cccnc2[C@H](C)OC)c2c3cc(ccc31)-c1csc(n1)C[C@H](NC(=O)[C@H](C(C)C)N(C)C(=O)[C@H]1CCN(C(C)=O)C1)C(=O)N1CCC[C@H](N1)C(=O)OCC(C)(C)C2', 'pIC50', '5.00 to 6.00');

###

# SYSTEM: KRAS WT (Homo sapiens (Human), UniProt P01116+P62937)
# Sequence (P01116 other isoform, or with tags, fused parts or gaps): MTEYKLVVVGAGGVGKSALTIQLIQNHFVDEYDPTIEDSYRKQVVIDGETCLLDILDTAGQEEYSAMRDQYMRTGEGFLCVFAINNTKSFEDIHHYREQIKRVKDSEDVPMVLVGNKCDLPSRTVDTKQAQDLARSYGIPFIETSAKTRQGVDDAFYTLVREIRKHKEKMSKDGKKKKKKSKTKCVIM
# Sequence (P62937 whole entry): as the sequence (P62937 whole entry) above
# PROTOCOL DESCRIPTION: Ras-Raf disruption/FRET/MOA assay (BRAF RBD, Cyclophilin A)
# Type: biochemical
# TEST CONDITIONS: read-out: KRAS WT FRET data IC50
pIC50: −log10 of the molar value.
In this section we review reported pIC50 values for a set of compounds.
ASSAY READOUT: pIC50

INSERT INTO measurements (structure_as_smiles, measured_value) VALUES
  ('CCn1c(-c2cccnc2[C@H](C)OC)c2c3cc(ccc31)-c1csc(n1)C[C@H](NC(=O)[C@H](C(C)C)N(C)C(=O)N1CCC1)C(=O)N1CCC[C@H](N1)C(=O)OCC(C)(C)C2', '6.00 to 7.00'),
  ('CCn1c(-c2cccnc2[C@H](C)OC)c2c3cc(ccc31)-c1csc(n1)C[C@H](NC(=O)[C@H](C(C)C)N(C)C(=O)N1CC[C@@]13CCCN(C)C3)C(=O)N1CCC[C@H](N1)C(=O)OCC(C)(C)C2', '6.00 to 7.00'),
  ('CCn1c(-c2cccnc2[C@H](C)OC)c2c3cc(ccc31)-c1csc(n1)C[C@H](NC(=O)[C@H](C(C)C)N(C)C(=O)N1CCOC[C@H]1C)C(=O)N1CCC[C@H](N1)C(=O)OCC(C)(C)C2', '7.00 to 8.00'),
  ('CCn1c(-c2cccnc2[C@H](C)OC)c2c3cc(ccc31)-c1csc(n1)C[C@H](NC(=O)[C@H](C(C)C)N(C)C(=O)N1CCN3C(=O)CN(C)C[C@@H]3C1)C(=O)N1CCC[C@H](N1)C(=O)OCC(C)(C)C2', '7.00 to 8.00');

###

// values below are reported IC50
# SYSTEM: KRAS G12V (Homo sapiens (Human), UniProt P01116+P62937, G12V)
# Sequence (P01116 other isoform, or with tags, fused parts or gaps G12V): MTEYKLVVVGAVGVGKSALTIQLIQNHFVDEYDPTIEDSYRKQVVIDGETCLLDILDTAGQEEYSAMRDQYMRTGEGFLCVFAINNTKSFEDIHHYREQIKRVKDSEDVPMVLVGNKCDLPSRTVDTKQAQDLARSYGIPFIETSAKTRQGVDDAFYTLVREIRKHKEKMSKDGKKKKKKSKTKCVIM
# Sequence (P62937 whole entry): as the sequence (P62937 whole entry) above
# PROTOCOL DESCRIPTION: Ras-Raf disruption/FRET/MOA assay (BRAF RBD, Cyclophilin A)
# Assay type: biochemical
# TEST CONDITIONS: read-out: KRAS G12V FRET IC50
ASSAY READOUT: IC50

INSERT INTO measurements (structure_as_smiles, system, measured_value) VALUES
  ('CCn1c(-c2cccnc2[C@H](C)OC)c2c3cc(ccc31)-c1csc(n1)C[C@H](NC(=O)[C@H](C(C)C)N(C)C(=O)N1CC(N(C)C(C)C)C1)C(=O)N1CCC[C@H](N1)C(=O)OCC(C)(C)C2', 'KRAS G12V (Homo sapiens (Human), UniProt P01116+P62937, G12V)', '100 to 1000 nM'),
  ('CCn1c(-c2cccnc2[C@H](C)OC)c2c3cc(ccc31)-c1csc(n1)C[C@H](NC(=O)[C@H](C(C)C)N(C)C(=O)N1CC(O)(COC)C1)C(=O)N1CCC[C@H](N1)C(=O)OCC(C)(C)C2', 'KRAS G12V (Homo sapiens (Human), UniProt P01116+P62937, G12V)', '100 to 1000 nM'),
  ('CCn1c(-c2cnccc2COC)c2c3cc(ccc31)-c1cc(O)cc(c1)C[C@H](NC(=O)[C@H](C(C)C)N(C)c1ncco1)C(=O)N1CCC[C@H](N1)C(=O)OCC(C)(C)C2', 'KRAS G12V (Homo sapiens (Human), UniProt P01116+P62937, G12V)', '1000 to 10000 nM'),
  ('CCn1c(-c2cccnc2[C@H](C)OC)c2c3cc(ccc31)-c1cccc(c1)C[C@H](NC(=O)[C@H](C(C)C)N(C)C(=O)C1COC1)C(=O)N1CCC[C@H](N1)C(=O)OCC(C)(C)C2', 'KRAS G12V (Homo sapiens (Human), UniProt P01116+P62937, G12V)', '1000 to 10000 nM'),
  ('CCn1c(-c2cc(N3CCN(C)CC3)cnc2[C@H](C)OC)c2c3cc(ccc31)-c1csc(n1)C[C@H](NC(=O)[C@H](C(C)C)N(C)C(=O)[C@H]1CCCS1(=O)=O)C(=O)N1CCC[C@H](N1)C(=O)OCC(C)(C)C2', 'KRAS G12V (Homo sapiens (Human), UniProt P01116+P62937, G12V)', '1000 to 10000 nM'),
  ('CCn1c(-c2cccnc2[C@H](C)OC)c2c3cc(ccc31)-c1csc(n1)C[C@H](NC(=O)[C@H](C(C)C)N(C)C(=O)N1CCN(C)CC13CC3)C(=O)N1CCC[C@H](N1)C(=O)OCC(C)(C)C2', 'KRAS G12V (Homo sapiens (Human), UniProt P01116+P62937, G12V)', '1000 to 10000 nM'),
  ('CCn1c(-c2cccnc2[C@H](C)OC)c2c3cc(ccc31)-c1csc(n1)C[C@H](NC(=O)[C@H](C(C)C)N(C)C(=O)N1CC(OC(F)(F)F)C1)C(=O)N1CCC[C@H](N1)C(=O)OCC(C)(C)C2', 'KRAS G12V (Homo sapiens (Human), UniProt P01116+P62937, G12V)', '100 to 1000 nM'),
  ('CCn1c(-c2cccnc2[C@H](C)OC)c2c3cc(ccc31)-c1csc(n1)C[C@H](NC(=O)[C@H](C(C)C)N(C)C(=O)N1CC(O)C1)C(=O)N1CCC[C@H](N1)C(=O)OCC(C)(C)C2', 'KRAS G12V (Homo sapiens (Human), UniProt P01116+P62937, G12V)', '100 to 1000 nM'),
  ('CCn1c(-c2cccnc2[C@H](C)OC)c2c3cc(ccc31)-c1csc(n1)C[C@H](NC(=O)[C@H](C(C)C)N(C)C(=O)N1CCN(C(=O)[C@@H]3CCCN3C)CC1)C(=O)N1CCC[C@H](N1)C(=O)OCC(C)(C)C2', 'KRAS G12V (Homo sapiens (Human), UniProt P01116+P62937, G12V)', '100 to 1000 nM');
